tested on: Scenedesmus acutus; assay: Growth inhibition of Scenedesmus acutus assessed as packed cell volume per ml of algal culture volume after 16 hr (reference value: 3.8 ul pcv/ml); format: functional
For each record, write down the corresponding Activity.
Give the quantity in uL/ml, number only.

Tell me the measured Activity of C#CCOc1cc(-n2nc(C)c(Cl)c2C)c(F)cc1Cl , please. 2.7

Then this compound: Cc1nn(-c2cc(OC(C)C)c(Cl)cc2F)c(C)c1C 3.9

Then this compound: C#CCOc1cc(-n2nc(C)c(Cl)c2C)c(Cl)cc1Cl 4

Then this compound: C#CCOc1cc(-n2nc(CC)c(Cl)c2CC)c(F)cc1Cl 2.7
